FYI, the data here is from paper PMC9982066.

TARGET: Ehrlichia translocated factor-1 (Etf-1), recombinant 6×His-Etf-1 fusion protein (E. chaffeensis, UniProt Q2GG12 1-380)
METHOD SUMMARY: fluorescence polarisation
CONDITION PARAMETERS: both partners purified
pKd: −log10 of the molar value.
REPORTED ENDPOINT: pKd

[[record]]
binder = "VXNHAXFXRRRRX (not fully specified; carboxyfluorescein (FAM) at the C-terminus through a β-Ala-β-Ala-Lys linker) [FAM-labeled macrocyclic peptide B22]"
value_observed = "< 4.60"

[[record]]
binder = "XFGDYXFXRRRRX (not fully specified; carboxyfluorescein (FAM) at the C-terminus through a β-Ala-β-Ala-Lys linker) [FAM-labeled macrocyclic peptide B17]"
value_observed = "< 4.60"

[[record]]
binder = "EHFEHAXFXRRRX (not fully specified; carboxyfluorescein (FAM) at the C-terminus through a β-Ala-β-Ala-Lys linker) [FAM-labeled macrocyclic peptide B13]"
value_observed = "< 4.60"

[[record]]
binder = "YDHDHLXFXRRRRX (not fully specified; same peptide as Dm35 (Table S3); bicyclic via TMA to Dap7 and Dap14; D2=isoAsp, D-Leu6, X7/X14=Dap, F8=4-chloro-Phe, X9=D-2-Nal, D-Arg10, D-Arg12; linker Lys(FAM) left out) [FAM-labeled macrocyclic peptide B7-133-5]"
value_observed = "< 5.00"

